Values were extracted from patent US20230049752A1.

Measured FACS signal at 1000 nM, listed per entry.
target: human Claudin-6 (CLDN6) (human) (UniProt P56747); experiment: FACS, limiting dilution, UMUC4 cells

Would you please look over these solved cases?
[[record]]
binder = "AB S8 (antibody, V domains shown) VH: QVQLVQSGAEVKKPGASVKMSCKASGYTFTTYTMHWVRQAPGQGLEWIGVINPSSGYTEYAQKFQGRVTLTADKSTSTVYMELSSLRSEDTAVYFCANGDYYVGYWGQGTLVTVSS VL: DIQLTQSPSSLSASVGDRVTMTCTASSSVSSTYFHWYQQKPGKAPKLWIYSTSNLASGVPSRFSGSGSGTDYTLTISSMQPEDAATYYCHQYHRSPLTFGQGTKLEIK"
readout_label = "FACS signal at 1000 nM"
result = 40500

[[record]]
binder = "AB S5 (antibody, V domains shown) VH: EVQLLESGGGLVQPGGSMRLSCAASGFTFSNYWMNWVRQAPGKGLEWLAQIRLKSDNYATHYTDSVKGRFTISRDDSKRTVYLQMNSLRAEDTGIYYCSDGPPSGSWGQGTLLTVSS VL: DIQMTQSPSSLSASVGDRVTITCRISENIYSYLAWYQQKPGKAPKLLVYNAKILVEGVPSRFSGSGSGTDFTLTISSLQPEDFGTYYCQHHYTVPWTFGQGTKLEIK"
readout_label = "FACS signal at 1000 nM"
result = 47200

[[record]]
binder = "AB S6 (antibody, V domains shown) VH: EVQLLESGGGLVQPGGSMRLSCAASGFTFSNYWMNWVRQAPGKGLEWLAQIRLKSDNYVTHYADSVKGRFTISRDDSKRTVYLQMNSLRAEDTGTYYCNDGPPSGSWGQGTLLTVSS VL: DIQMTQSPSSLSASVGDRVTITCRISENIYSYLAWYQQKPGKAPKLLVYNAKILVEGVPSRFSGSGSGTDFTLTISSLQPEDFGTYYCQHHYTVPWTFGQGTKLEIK"
readout_label = "FACS signal at 1000 nM"
result = 42300

[[record]]
binder = "AB S10 (antibody, V domains shown) VH: QVQLVQSGAEVKKPGASVKMSCKASGYTFTTYTMHWVRQAPGQGLEWIGFINPSSGYTEYAQKFQGRVTLTADKSTSTVYMELSSLRSEDTAVYYCANGDYYVGYWGQGTLVTVSS VL: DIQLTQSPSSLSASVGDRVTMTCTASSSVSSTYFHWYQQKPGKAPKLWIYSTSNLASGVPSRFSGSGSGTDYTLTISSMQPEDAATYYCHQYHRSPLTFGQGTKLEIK"
readout_label = "FACS signal at 1000 nM"
result = 35100


Now take the following binder into account.
What value of FACS signal at 1000 nM has been recorded for this entry: AB3-7 (antibody, V domains shown, humanized; also called AB23; humanized AB3-7) VH: EVQLLESGGGLVQPGGSMRLSCAASGFTFSNYWMNWVRQAPGKGLEWVAQIRLKSDNYATHYADSVKGRFTISRDDSKNTVYLQMNSLRAEDTGVYYCNDGPPSGSWGQGTLLTVSS VL: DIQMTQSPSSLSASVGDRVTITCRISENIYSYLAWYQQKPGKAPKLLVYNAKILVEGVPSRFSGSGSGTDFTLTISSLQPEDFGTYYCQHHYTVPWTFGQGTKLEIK
9840
